- System: EP2 receptor
- methodDescription: Therapeutic index, ratio of CC50 for rat C6 cells to KB for EP2 receptor (unknown origin)
- Format: cell-based
- conditionLabel: read-out: TI
reportedMetric: selectivity ratio

{"smilesRepr": "Cc1cc2ccccc2n1CCNC(=O)c1ccc(N2CCC(O)CC2)cc1", "inequalitySymbol": "=", "quantitativeReadout": 6080}
{"smilesRepr": "CCN(CC)c1ccc(C(=O)NCCc2c(C)[nH]c3ccccc23)cc1", "inequalitySymbol": ">", "quantitativeReadout": 72500}
{"smilesRepr": "Cc1cc2ccccc2n1CCNC(=O)c1ccc(N2CCOCC2)cc1", "inequalitySymbol": "=", "quantitativeReadout": 30100}
{"smilesRepr": "Cc1cc2ccccc2n1CCNC(=O)c1ccc(N2CCN(C)CC2)c(F)c1", "inequalitySymbol": "=", "quantitativeReadout": 6660}
{"smilesRepr": "Cc1cc2ccccc2n1CCNC(=O)c1ccc(N2CCOCC2)c(F)c1", "inequalitySymbol": ">", "quantitativeReadout": 19400}
{"smilesRepr": "Cc1[nH]c2ccccc2c1CCNC(=O)c1ccc(N2CCOCC2)cc1", "inequalitySymbol": "=", "quantitativeReadout": 10900}
{"smilesRepr": "Cc1cc2ccccc2n1CCNC(=O)c1ccc(N2CCCCC2)cc1", "inequalitySymbol": "=", "quantitativeReadout": 33500}
{"smilesRepr": "Cc1cc2ccccc2n1CCNC(=O)c1ccc2c(c1)n(C)c(=O)n2C", "inequalitySymbol": "=", "quantitativeReadout": 7370}
{"smilesRepr": "CCCN(CCC)c1ccc(C(=O)NCCn2c(C)cc3ccccc32)cc1", "inequalitySymbol": "=", "quantitativeReadout": 28100}
{"smilesRepr": "CCN(CC)c1ccc(C(=O)NCCn2c(C)cc3ccccc32)cc1", "inequalitySymbol": "=", "quantitativeReadout": 119000}
{"smilesRepr": "Cc1cc2ccccc2n1CCNC(=O)c1ccc(N2CCCCCC2)cc1", "inequalitySymbol": "=", "quantitativeReadout": 14500}
{"smilesRepr": "Cc1cc2ccccc2n1CCNC(=O)c1ccc(N2CCCC2)cc1", "inequalitySymbol": "=", "quantitativeReadout": 16100}

* * *

- methodDescription: AUClast in C57Bl/6 mouse at 5 mg/kg, ip
- Assay type: ADME, organism-based
- Parameters: time 0 - last, dose 5 mg/kg, route intraperitoneal
- conditionLabel: plasma
reportedMetric: AUC(0-t) (ng·h/mL)

{"smilesRepr": "Cc1cc2ccccc2n1CCNC(=O)c1ccc(-c2nnn[nH]2)cc1", "reportedMetric": "AUC(0-t)", "valueUnit": "ng·h/mL", "quantitativeReadout": 1580}

* * *

- methodDescription: Metabolic stability of the compound in human liver microsomes assessed as compound remaining at 10 uM after 15 mins
- Format: ADME
- conditionLabel: read-out: Stability
This listing pairs compounds with measured remaining at […], 10 µM.

{"smilesRepr": "Cc1cc2ccccc2n1CCNC(=O)c1ccc(-c2nnn[nH]2)cc1", "remaining at […], 10 µM (%)": 96}
{"smilesRepr": "Cc1cc2ccccc2n1CCNC(=O)c1cnc(Nc2ccccc2)nc1", "remaining at […], 10 µM (%)": 88}
{"smilesRepr": "Cc1cc2ccccc2n1CCNC(=O)c1ccc(N(C)C)cc1", "remaining at […], 10 µM (%)": 27}
{"smilesRepr": "Cc1cc2ccccc2n1CCNC(=O)c1ccc(N2CCC(O)CC2)cc1", "remaining at […], 10 µM (%)": 66}
{"smilesRepr": "CCN(CC)c1ccc(C(=O)NCCc2c(C)[nH]c3ccccc23)cc1", "remaining at […], 10 µM (%)": 40}
{"smilesRepr": "Cc1[nH]c2ccccc2c1CCNC(=O)c1ccc(N(C)C)cc1", "remaining at […], 10 µM (%)": 34}
{"smilesRepr": "Cc1cc2ccccc2n1CCNC(=O)c1ccc(N2CCCC2)cc1", "remaining at […], 10 µM (%)": 22}
{"smilesRepr": "Cc1cc2ccccc2n1CCNC(=O)c1ccc(-n2cnnn2)cc1", "remaining at […], 10 µM (%)": 75}
{"smilesRepr": "CCCN(CCC)c1ccc(C(=O)NCCn2c(C)cc3ccccc32)cc1", "remaining at […], 10 µM (%)": 40}
{"smilesRepr": "Cc1cc2ccccc2n1CCNC(=O)c1ccc(N2CCOCC2)cc1", "remaining at […], 10 µM (%)": 58}
{"smilesRepr": "Cc1cc2ccccc2n1CCNC(=O)c1ccc(N2CCC(C(=O)O)CC2)cc1", "remaining at […], 10 µM (%)": 97}

* * *

- methodDescription: Cmax in C57Bl/6 mouse at 5 mg/kg, ip
- Assay type: ADME, organism-based
- Design: dose 5 mg/kg, route intraperitoneal
- conditionLabel: in vivo

{"smilesRepr": "Cc1cc2ccccc2n1CCNC(=O)c1ccc(-c2nnn[nH]2)cc1", "valueUnit": "ng/mL", "Cmax": 2040}

* * *

- methodDescription: Metabolic stability of the compound in human liver microsomes assessed as compound remaining at 10 uM after 60 mins
- Assay type: ADME
- conditionLabel: read-out: Stability

{"smilesRepr": "Cc1cc2ccccc2n1CCNC(=O)c1ccc(N2CCC(O)CC2)cc1", "valueUnit": "%", "inequalitySymbol": "=", "remaining at 1 h, 10 µM": 31}
{"smilesRepr": "Cc1cc2ccccc2n1CCNC(=O)c1ccc(N2CCC(C(=O)O)CC2)cc1", "valueUnit": "%", "inequalitySymbol": "=", "remaining at 1 h, 10 µM": 95}
{"smilesRepr": "CCCN(CCC)c1ccc(C(=O)NCCn2c(C)cc3ccccc32)cc1", "valueUnit": "%", "inequalitySymbol": "=", "remaining at 1 h, 10 µM": 5}
{"smilesRepr": "Cc1cc2ccccc2n1CCNC(=O)c1ccc(N2CCCCC2)cc1", "valueUnit": "%", "inequalitySymbol": "=", "remaining at 1 h, 10 µM": 21}
{"smilesRepr": "Cc1cc2ccccc2n1CCNC(=O)c1ccc(N2CCCCCC2)cc1", "valueUnit": "%", "inequalitySymbol": "=", "remaining at 1 h, 10 µM": 28}
{"smilesRepr": "Cc1cc2ccccc2n1CCNC(=O)c1ccc(N2CCCC2)cc1", "valueUnit": "%", "inequalitySymbol": "=", "remaining at 1 h, 10 µM": 1.4}
{"smilesRepr": "CCN(CC)c1ccc(C(=O)NCCc2c(C)[nH]c3ccccc23)cc1", "valueUnit": "%", "inequalitySymbol": "=", "remaining at 1 h, 10 µM": 5}
{"smilesRepr": "Cc1cc2ccccc2n1CCNC(=O)c1cnc(Nc2ccccc2)nc1", "valueUnit": "%", "inequalitySymbol": "=", "remaining at 1 h, 10 µM": 50}
{"smilesRepr": "Cc1cc2ccccc2n1CCNC(=O)c1ccc(N2CCOCC2)cc1", "valueUnit": "%", "inequalitySymbol": "=", "remaining at 1 h, 10 µM": 22}
{"smilesRepr": "CCN(CC)c1ccc(C(=O)NCCn2c(C)cc3ccccc32)cc1", "valueUnit": "%", "inequalitySymbol": "=", "remaining at 1 h, 10 µM": 4}
{"smilesRepr": "Cc1[nH]c2ccccc2c1CCNC(=O)c1ccc(N(C)C)cc1", "valueUnit": "%", "inequalitySymbol": "=", "remaining at 1 h, 10 µM": 4}
{"smilesRepr": "Cc1[nH]c2ccccc2c1CCNC(=O)c1ccc(N2CCOCC2)cc1", "valueUnit": "%", "inequalitySymbol": "=", "remaining at 1 h, 10 µM": 40}
{"smilesRepr": "Cc1cc2ccccc2n1CCNC(=O)c1ccc(-c2nnn[nH]2)cc1", "valueUnit": "%", "inequalitySymbol": "=", "remaining at 1 h, 10 µM": 73}
{"smilesRepr": "Cc1cc2ccccc2n1CCNC(=O)c1ccc(N(C)C)cc1", "valueUnit": "%", "inequalitySymbol": "<", "remaining at 1 h, 10 µM": 1}
{"smilesRepr": "Cc1cc2ccccc2n1CCNC(=O)c1ccc(-n2cnnn2)cc1", "valueUnit": "%", "inequalitySymbol": "=", "remaining at 1 h, 10 µM": 26}

* * *

- studyTarget: Prostaglandin E2 receptor EP2 subtype (Homo sapiens) (UniProt P43116)
- Sequence (P43116 whole entry): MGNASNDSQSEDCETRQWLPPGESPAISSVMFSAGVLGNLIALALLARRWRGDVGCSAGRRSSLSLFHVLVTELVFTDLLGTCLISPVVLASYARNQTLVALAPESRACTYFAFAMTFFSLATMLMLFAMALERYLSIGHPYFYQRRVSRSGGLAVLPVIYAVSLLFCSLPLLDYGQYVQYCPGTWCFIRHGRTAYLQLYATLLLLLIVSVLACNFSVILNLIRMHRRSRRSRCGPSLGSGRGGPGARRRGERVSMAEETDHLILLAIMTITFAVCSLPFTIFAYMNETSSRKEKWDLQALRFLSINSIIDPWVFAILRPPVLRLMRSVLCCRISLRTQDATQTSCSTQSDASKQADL
- methodDescription: Antagonist activity at EP2 receptor (unknown origin) expressed in rat C6 cells assessed as inhibition of PGE2-induced response
- Format: cell-based
reportedMetric: Kb (nM)

{"molecule": "CCCN(CCC)c1ccc(C(=O)NCCn2c(C)cc3ccccc32)cc1", "reportedMetric": "Kb", "inequalitySymbol": "=", "quantitativeReadout": 11.9}
{"molecule": "Cc1cc2ccccc2n1CCNC(=O)c1ccc(N2CCOCC2)cc1", "reportedMetric": "Kb", "inequalitySymbol": "=", "quantitativeReadout": 9.6}
{"molecule": "Cc1cc2ccccc2n1CCNC(=O)c1ccc(C2CCCNC2)cc1 (stereo unspecified)", "reportedMetric": "Kb", "inequalitySymbol": ">", "quantitativeReadout": 1000}
{"molecule": "CCN(CC)c1ccc(C(=O)NCCn2c(C)cc3ccccc32)cc1OC", "reportedMetric": "Kb", "inequalitySymbol": "=", "quantitativeReadout": 61.2}
{"molecule": "CC(=O)Nc1ccc(C(=O)NCCc2c(C)[nH]c3ccccc23)cc1", "reportedMetric": "Kb", "inequalitySymbol": "=", "quantitativeReadout": 138}
{"molecule": "Cc1cc2ccccc2n1CCNC(=O)c1cnc(Nc2ccccc2)nc1", "reportedMetric": "Kb", "inequalitySymbol": "=", "quantitativeReadout": 1.6}
